List of pIC50 values.
# test system: Toll-like receptor 4 (Homo sapiens, UniProt O00206)
# Sequence (O00206 whole entry): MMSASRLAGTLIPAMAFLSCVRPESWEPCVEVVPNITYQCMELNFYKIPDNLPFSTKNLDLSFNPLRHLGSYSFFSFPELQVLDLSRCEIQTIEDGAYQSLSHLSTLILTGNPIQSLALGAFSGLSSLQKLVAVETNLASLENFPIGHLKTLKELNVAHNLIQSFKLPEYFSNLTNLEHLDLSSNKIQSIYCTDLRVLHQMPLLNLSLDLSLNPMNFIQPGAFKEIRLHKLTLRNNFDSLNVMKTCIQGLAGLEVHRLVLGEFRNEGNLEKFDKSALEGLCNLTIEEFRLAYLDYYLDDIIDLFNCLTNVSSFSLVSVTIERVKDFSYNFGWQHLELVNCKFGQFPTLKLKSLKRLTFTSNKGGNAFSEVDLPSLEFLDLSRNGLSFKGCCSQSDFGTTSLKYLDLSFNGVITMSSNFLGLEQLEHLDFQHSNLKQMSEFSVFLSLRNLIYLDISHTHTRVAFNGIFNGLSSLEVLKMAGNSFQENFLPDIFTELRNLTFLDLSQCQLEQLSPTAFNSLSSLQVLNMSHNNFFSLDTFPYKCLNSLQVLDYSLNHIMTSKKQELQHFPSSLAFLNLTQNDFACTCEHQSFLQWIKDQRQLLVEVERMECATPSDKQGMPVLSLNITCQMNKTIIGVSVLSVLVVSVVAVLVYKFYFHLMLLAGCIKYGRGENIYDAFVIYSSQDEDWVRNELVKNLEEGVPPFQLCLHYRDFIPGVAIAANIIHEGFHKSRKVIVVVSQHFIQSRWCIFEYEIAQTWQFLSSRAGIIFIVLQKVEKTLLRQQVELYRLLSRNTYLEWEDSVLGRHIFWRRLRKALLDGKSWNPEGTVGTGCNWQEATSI
# assay notes: Antagonistic potency at human TLR4 expressed in HEK293 cells
pIC50: −log10 of the molar value.
readout label: pIC50

INSERT INTO results (compound, quantitative_readout) VALUES
  ('CCCCCCCCCCCCCC(=O)N[C@@H](COCC[C@H](CCCCCCC)OC(=O)CCCCCCCCCCC)COP(=O)(O)OCCNC(=O)C(Cc1ccc(O)cc1)C(=O)O (some centres undefined)', 7.10),
  ('CCCCCCCCCCCCCC(=O)N[C@H](COCC[C@@H](CCCCCCC)OC(=O)CCCCCCCCCCC)COP(=O)(O)OCCNC(=O)C(Cc1ccc(O)cc1)C(=O)O (some centres undefined)', 6.46),
  ('CCCCCCCCCCCCCC(=O)N[C@@H](COCC[C@@H](CCCCCCC)OC(=O)CCCCCCCCCCC)COP(=O)(O)OCCNC(=O)C(Cc1ccc(O)cc1)C(=O)O (some centres undefined)', 6.60),
  ('CCCCCCCCCCCCCC(=O)N[C@H](COCC[C@H](CCCCCCC)OC(=O)CCCCCCCCCCC)COP(=O)(O)OCCNC(=O)C(Cc1ccc(O)cc1)C(=O)O (some centres undefined)', 6.80);

Ref: ChEMBL document CHEMBL1141958
